meta.source: patent US6399759B1

- Tested on: Soli E1
- ASSAY PROCEDURE: Inhibition of amidolytic activity by synthetic inhibitors
- Assay type: biochemical, Solenopsis invicta
Where a SMILES comes first, the peptide text is derived from it. [ ]: non-standard residue; d: D form. The star is where a group is joined. Sta = CC(C)C[C@H](N)[C@@H](O)CC(=O)O; Isovaleryl = CC(C)CC(=O)*
ENDPOINT: Inhibition of Soli E1 by class-specific proteinase inhibitors (in words)

Challenge: Recorded Inhibition of Soli E1 by class-specific proteinase inhibitors (in words) of CC(C)C[C@H](NC(=O)[C@H]1O[C@@H]1C(=O)O)C(=O)NCCCCN=C(N)N (relative stereo) [E-64] , please.
Response given: not

Challenge: Recorded Inhibition of Soli E1 by class-specific proteinase inhibitors (in words) of CC(C)CC(=O)N[C@H](C(=O)N[C@H](C(=O)N[C@@H](CC(C)C)[C@@H](O)CC(=O)N[C@@H](C)C(=O)N[C@@H](CC(C)C)[C@@H](O)CC(=O)O)C(C)C)C(C)C [Pepstatin] (Isovaleryl-VV[Sta]A[Sta]-OH) , please.
Response given: not

Challenge: Recorded Inhibition of Soli E1 by class-specific proteinase inhibitors (in words) of O=C(O)CN(CCN(CC(=O)O)CC(=O)O)CC(=O)O [EDTA, ethylenediaminetetraacetate·2H2O] , please.
Response given: not
